Test: Selectivity index, ratio of CC50 for human Huh-7 cells to EC50 for WNV infected in human Huh-7 cells
Assay type: toxicity, cell-based
Conditions: read-out: Ratio CC50/EC50
# selectivity ratio listing for each entry below

Qu. Can you look up the measured selectivity ratio of CCCCCCCCCCCCCCCCCCNC1=NC(=O)C2C(N=CN2[C@@H]2O[C@H](CO)[C@@H](O)[C@H]2O)C(=O)N1 (some centres not stated) for me?
Ans. > 195

Proceed to the following item.
Qu. Can you look up the measured selectivity ratio of "CCCCc1cn(-c2ccc(NC(=O)Nc3ccccc3C)cc2)nn1" for me?
Ans. > 12

----------
# selectivity ratio listing for each entry below
Assay: Selectivity index, ratio of CC50 for hamster BHK-21 cells to EC50 for JEV SA14-14-2 infected in hamster BHK-21 cells
Format: toxicity, cell-based
Settings: read-out: Ratio CC50/EC50

Qu. Can you look up the measured selectivity ratio of "CCCCc1cn(-c2ccc(NC(=O)Nc3ccccc3C)cc2)nn1" for me?
Ans. > 2.5

Proceed to the following item.
Qu. Can you look up the measured selectivity ratio of "Cc1ccccc1NC(=O)Nc1cccc([N+](=O)[O-])c1" for me?
Ans. > 5

----------
# log10 IC50 listing for each entry below
Biological target: ATP-dependent RNA helicase DDX3X (Homo sapiens, UniProt O00571)
Sequence (O00571 whole entry): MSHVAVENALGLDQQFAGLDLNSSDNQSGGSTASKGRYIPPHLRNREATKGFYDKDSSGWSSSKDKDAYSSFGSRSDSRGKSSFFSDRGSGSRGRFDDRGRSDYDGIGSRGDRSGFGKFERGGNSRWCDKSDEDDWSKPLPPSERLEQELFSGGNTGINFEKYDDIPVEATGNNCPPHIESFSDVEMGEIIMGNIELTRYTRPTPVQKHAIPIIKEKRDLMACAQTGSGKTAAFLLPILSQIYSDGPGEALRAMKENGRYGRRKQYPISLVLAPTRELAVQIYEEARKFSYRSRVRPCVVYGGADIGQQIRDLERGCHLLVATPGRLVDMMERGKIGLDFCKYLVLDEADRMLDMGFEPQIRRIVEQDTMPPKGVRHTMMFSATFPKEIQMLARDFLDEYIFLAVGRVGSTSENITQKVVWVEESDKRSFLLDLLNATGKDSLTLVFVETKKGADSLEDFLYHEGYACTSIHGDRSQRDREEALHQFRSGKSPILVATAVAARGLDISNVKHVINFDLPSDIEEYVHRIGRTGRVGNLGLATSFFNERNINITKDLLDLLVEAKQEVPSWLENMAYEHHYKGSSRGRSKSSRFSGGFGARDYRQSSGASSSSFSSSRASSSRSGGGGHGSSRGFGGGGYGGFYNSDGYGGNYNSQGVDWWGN
Assay: Inhibition of DDX3X (unknown origin) helicase activity
Scale: log10; quantity: IC50; unit before log: nM

Check out these entries, answers already filled in.
Qu. Can you look up the measured log10 IC50 of "CC(C)Cc1cn(-c2ccc(NC(=O)Nc3ccccc3F)cc2)nn1" for me?
Ans. 2.08

Qu. Can you look up the measured log10 IC50 of "CCCCc1cn(-c2ccc(NC(=O)Nc3ccc(C)nc3)cc2)nn1" for me?
Ans. 3.18

Qu. Can you look up the measured log10 IC50 of "CCCCc1cn(-c2ccc(NC(=O)Nc3ccccc3F)cc2)nn1" for me?
Ans. 2.78

Qu. Can you look up the measured log10 IC50 of "CC(C)Cc1cn(-c2ccc(NC(=O)Nc3ccc4cnccc4c3)cc2)nn1" for me?
Ans. 2.18

Qu. Can you look up the measured log10 IC50 of "CC(C)Cc1cn(-c2ccc(NC(=O)Nc3cccc(F)c3)cc2)nn1" for me?
Ans. 2.30

Proceed to the following item.
Qu. Can you look up the measured log10 IC50 of "CCCCc1cn(-c2ccc(NC(=O)Nc3ccccc3OC3CCCC3)cc2)nn1" for me?
Ans. 2.15

----------
Test: Selectivity index, ratio of CC50 for African green monkey Vero cells to EC50 for DENV-2 infected in African green monkey Vero cells
Format: toxicity
Details: read-out: Ratio CC50/EC50
MEASURED_ATTRIBUTE: selectivity ratio

Qu. Can you look up the measured selectivity ratio of "COc1ccc(Cn2c3ncnc4c(ncn4Cc4ccc(OC)cc4)c-3nc2=O)cc1" for me?
Ans. 3.5

----------
Experiment: Selectivity index, ratio of CC50 for African green monkey Vero cells to EC50 for RSV infected in African green monkey Vero cells
Type: toxicity
Conditions: read-out: Ratio CC50/EC50
MEASURED_ATTRIBUTE: selectivity ratio
Lab note: jot down the number only; don't add units.

Qu. Can you look up the measured selectivity ratio of "COc1ccc(Cn2c3ncnc4c(ncn4Cc4ccc(OC)cc4)c-3nc2=O)cc1" for me?
Ans. 2.2

// data source = ChEMBL document CHEMBL5214928
